assay: Unbound fraction in rat serum measured after 24 hrs by equilibrium dialysis based LC-MS/MS analysis; format: ADME, cell-free
Starred links: 1 amine or outer side, 2 acyl side, 3 side chain; linkers in the order of their positions; H or OH if unused. Positions of bridges follow the written chain, without caps; N, C: chain ends. Non-standard residues stand in square brackets, D forms with d. Residues, ends and D or L forms follow the SMILES beside them. NHCH2CH2SCH2CO = O=C(CSCCN[*:1])[*:2]; NMeF = CN[C@@H](Cc1ccccc1)C(=O)O; hCha = N[C@@H](CCC1CCCCC1)C(=O)O; X1 = CC(C)(CN[*:1])SCC(=O)[*:2]; Pen = CC(C)(S)[C@H](N)C(=O)O; αMeP = C[C@@]1(C(=O)O)CCCN1
# fraction unbound at 24 h annotations

{"compound": "CC(C)C[C@@H]1NC(=O)[C@H](C(C)C)NC(=O)[C@]2(C)CCCN2C(=O)[C@H](C(C)C)NC(=O)[C@H](Cc2ccccc2)NC(=O)CSC(C)(C)CNC(=O)[C@H](C)NC(=O)[C@H](Cc2ccccc2)N(C)C(=O)[C@H](CC(C)C)NC(=O)[C@H](CCC2CCCCC2)NC1=O (cyclo(A[X1]FV[αMeP]VL[hCha]L[NMeF]))", "measured endpoint": "fraction unbound at 24 h", "data value": 0.001}
{"compound": "CC(C)C[C@@H]1NC(=O)[C@H](C(C)C)NC(=O)[C@]2(C)CCCN2C(=O)[C@H](C(C)C)NC(=O)[C@H](Cc2ccccc2)NC(=O)CSCCNC(=O)[C@H](C)NC(=O)[C@H](Cc2ccccc2)N(C)C(=O)[C@H](CC(C)C)NC(=O)[C@H](CCC2CCCCC2)NC1=O (cyclo(A[NHCH2CH2SCH2CO]FV[αMeP]VL[hCha]L[NMeF]))", "measured endpoint": "fraction unbound at 24 h", "data value": 0.001}
{"compound": "CC(C)C[C@@H]1NC(=O)[C@H](C(C)C)NC(=O)[C@@H]2CCCN2C(=O)[C@H](C(C)C)NC(=O)[C@H](Cc2ccccc2)NC(=O)CSCCNC(=O)CNC(=O)[C@H](Cc2ccccc2)N(C)C(=O)[C@H](CC(C)C)NC(=O)[C@H](Cc2c[nH]c3ccccc23)NC1=O (cyclo(FVPVLWL[NMeF]G[NHCH2CH2SCH2CO]))", "measured endpoint": "fraction unbound at 24 h", "data value": 0.011}

What measured fraction unbound at 24 h goes with COC(=O)[C@H]1NC(=O)[C@H](C)NC(=O)[C@H](Cc2ccccc2)N(C)C(=O)[C@H](CC(C)C)NC(=O)[C@H](CCC2CCCCC2)NC(=O)[C@H](CC(C)C)NC(=O)[C@H](C(C)C)NC(=O)[C@]2(C)CCCN2C(=O)[C@H](C(C)C)NC(=O)[C@H](Cc2ccccc2)NC(=O)CSC1(C)C ({CH2CO}-FV[αMeP]VL[hCha]L[NMeF]A[Pen]-OMe; thioether N-10) ? 0.001

----------
Starred links: 1 amine or outer side, 2 acyl side, 3 side chain; linkers in the order of their positions; H or OH if unused. Positions of bridges follow the written chain, without caps; N, C: chain ends. Non-standard residues stand in square brackets, D forms with d. Residues, ends and D or L forms follow the SMILES beside them. Trp(1-Me) = Cn1cc(C[C@H](N)C(=O)O)c2ccccc21; 1Nal = N[C@@H](Cc1cccc2ccccc12)C(=O)O; NHCH2CH2SCH2CO = O=C(CSCCN[*:1])[*:2]; NMeF = CN[C@@H](Cc1ccccc1)C(=O)O; hCha = N[C@@H](CCC1CCCCC1)C(=O)O; Pen = CC(C)(S)[C@H](N)C(=O)O; αMeP = C[C@@]1(C(=O)O)CCCN1
The listing below reports IC50 for molecules tested on UniProtKB Q72874.
Report the figure in nM without appending any unit label.

Solved cases (5 shown):
{"molecule": "CC(C)C[C@@H]1NC(=O)[C@H](C(C)C)NC(=O)[C@@H]2CCCN2C(=O)[C@H](C(C)C)NC(=O)[C@H](Cc2ccccc2)NC(=O)CSCCNC(=O)[C@H](Cc2ccccc2)N(C)C(=O)[C@H](CC(C)C)NC(=O)[C@H](Cc2c[nH]c3ccccc23)NC1=O (cyclo(FVPVLWL[NMeF][NHCH2CH2SCH2CO]))", "unit symbol": "nM", "IC50": 8.05}
{"molecule": "COC(=O)[C@H]1NC(=O)[C@H](C)NC(=O)[C@H](Cc2ccccc2)N(C)C(=O)[C@H](CC(C)C)NC(=O)[C@H](CCC2CCCCC2)NC(=O)[C@H](CC(C)C)NC(=O)[C@H](C(C)C)NC(=O)[C@]2(C)CCCN2C(=O)[C@H](C(C)C)NC(=O)[C@H](Cc2ccccc2)NC(=O)CSC1(C)C ({CH2CO}-FV[αMeP]VL[hCha]L[NMeF]A[Pen]-OMe; thioether N-10)", "unit symbol": "nM", "IC50": 3.52}
{"molecule": "CC(C)C[C@@H]1NC(=O)[C@H](C(C)C)NC(=O)[C@]2(C)CCCN2C(=O)[C@H](C(C)C)NC(=O)[C@H](Cc2ccccc2)NC(=O)CSCCNC(=O)[C@H](Cc2ccccc2)NC(=O)[C@H](Cc2ccccc2)N(C)C(=O)[C@H](CC(C)C)NC(=O)[C@H](CCC2CCCCC2)NC1=O (cyclo(FV[αMeP]VL[hCha]L[NMeF]F[NHCH2CH2SCH2CO]))", "unit symbol": "nM", "IC50": 2.32}
{"molecule": "CC(C)C[C@@H]1NC(=O)[C@H](C(C)C)NC(=O)[C@]2(C)CCCN2C(=O)[C@H](C(C)C)NC(=O)[C@H](Cc2ccccc2)NC(=O)CSCCNC(=O)CNC(=O)[C@H](Cc2ccccc2)N(C)C(=O)[C@H](CC(C)C)NC(=O)[C@H](CCC2CCCCC2)NC1=O (cyclo(FV[αMeP]VL[hCha]L[NMeF]G[NHCH2CH2SCH2CO]))", "unit symbol": "nM", "IC50": 0.37}
{"molecule": "CC(C)C[C@@H]1NC(=O)[C@H](C(C)C)NC(=O)[C@@H]2CCCN2C(=O)[C@H](C(C)C)NC(=O)[C@H](Cc2ccccc2)NC(=O)CSCCNC(=O)[C@H](Cc2ccccc2)N(C)C(=O)[C@H](CC(C)C)NC(=O)[C@H](Cc2cn(C)c3ccccc23)NC1=O (cyclo(FVPVL[Trp(1-Me)]L[NMeF][NHCH2CH2SCH2CO]))", "unit symbol": "nM", "IC50": 7.86}

Here is another molecule to look at.
Provide value of IC50 for this record tested with UniProtKB Q72874: CC(C)C[C@@H]1NC(=O)[C@H](C(C)C)NC(=O)[C@]2(C)CCCN2C(=O)[C@H](C(C)C)NC(=O)[C@H](Cc2ccccc2)NC(=O)CSCCNC(=O)[C@H](Cc2ccccc2)N(C)C(=O)[C@H](CC(C)C)NC(=O)[C@H](Cc2cccc3ccccc23)NC1=O (cyclo([1Nal]L[NMeF][NHCH2CH2SCH2CO]FV[αMeP]VL)) 0.78

----------
Catalogue of bioavailability readings, one per entry.
experiment: Oral bioavailability in Sprague-Dawley rat at 2 umol/kg administered as single dose by LC-MS/MS analysis; format: ADME, organism-based; conditions: in vivo, at 2 µmol/kg
Starred links: 1 amine or outer side, 2 acyl side, 3 side chain; linkers in the order of their positions; H or OH if unused. Positions of bridges follow the written chain, without caps; N, C: chain ends. Non-standard residues stand in square brackets, D forms with d. Residues, ends and D or L forms follow the SMILES beside them. NMeF = CN[C@@H](Cc1ccccc1)C(=O)O; hCha = N[C@@H](CCC1CCCCC1)C(=O)O; X1 = CC(C)(CN[*:1])SCC(=O)[*:2]; Pen = CC(C)(S)[C@H](N)C(=O)O; αMeP = C[C@@]1(C(=O)O)CCCN1

{"molecule": "COC(=O)[C@H]1NC(=O)[C@H](C)NC(=O)[C@H](Cc2ccccc2)N(C)C(=O)[C@H](CC(C)C)NC(=O)[C@H](CCC2CCCCC2)NC(=O)[C@H](CC(C)C)NC(=O)[C@H](C(C)C)NC(=O)[C@]2(C)CCCN2C(=O)[C@H](C(C)C)NC(=O)[C@H](Cc2ccccc2)NC(=O)CSC1(C)C ({CH2CO}-FV[αMeP]VL[hCha]L[NMeF]A[Pen]-OMe; thioether N-10)", "measured endpoint": "bioavailability", "data value": "3.3%"}

Continue with the next molecule.
Which bioavailability reading was recorded for the molecule CC(C)C[C@@H]1NC(=O)[C@H](C(C)C)NC(=O)[C@]2(C)CCCN2C(=O)[C@H](C(C)C)NC(=O)[C@H](Cc2ccccc2)NC(=O)CSC(C)(C)CNC(=O)[C@H](C)NC(=O)[C@H](Cc2ccccc2)N(C)C(=O)[C@H](CC(C)C)NC(=O)[C@H](CCC2CCCCC2)NC1=O (cyclo(A[X1]FV[αMeP]VL[hCha]L[NMeF])) ? 0.2%
